# System: P-gp
# assay-protocol: PK and CNS distribution after single intravenous dose, P-gp-knockout
# Format: in vivo, mouse
# conditions: FVB, mouse, brain, iv, 10 mg/kg
measured-property: AUC(0-inf) (ng·h/mL)
Write down the numeric answer in ng·h/mL and omit the unit.

Given the entry Cc1c(C(=O)O)ccc2c3n(nc12)[C@@H]1[C@H](C3)N(CC2CC2)[C@@]2(C(=O)Nc3cc(Cl)ccc32)[C@H]1c1cccc(Cl)c1F , report its measured AUC(0-inf).
81600

* * *

# System: P-gp
# assay-protocol: PK and CNS distribution after single intravenous dose, P-gp-knockout
# Assay type: in vivo, mouse
# conditions: P-gp-knockout (Mdr1a/b−/−), mouse, plasma, iv, 10 mg/kg
measured-property: Vd (L/kg)
Write down the numeric answer in L/kg and omit the unit.

Given the entry Cc1c(C(=O)O)ccc2c3n(nc12)[C@@H]1[C@H](C3)N(CC2CC2)[C@@]2(C(=O)Nc3cc(Cl)ccc32)[C@H]1c1cccc(Cl)c1F , report its measured Vd.
0.443
